- Test system: 786-0
- Protocol Details: NCI tumour cell line growth inhibition, 48 h
Activity calls are given as the source filed them. Cut-off read from the data, not from the text of the source: active = GI50 up to about 1.1 µM and inactive = higher.
Labels: 1 for active, -1 for inactive

Compound	Discrete Label
CC(C)=CCC\C(C)=C/C=C/C(C)=C\C=C\C(C)=C/C=C/C=C(C)\C=C\C=C(C)/C=C/C=C(/C)CCC=C(C)C	-1
CC1C(=NO)C(C)C(c2ccccc2)N(N=O)C1c1ccccc1 (stereo unspecified)	-1
Cc1ccc(S(=O)(=O)NC(=O)NC2=NC(C)(C)N(c3ccc(Cl)c(Cl)c3)C(N)=N2)cc1	-1
CC(=O)c1[nH]c(NC(C)C)c(C(=S)Nc2ccccc2)c1N	-1
C[N+]1=C2[B-](C(C)(C)C)=[N+](C(C)(C)C)[B-]2(C(C)(C)C)[N+](C)=C2[B-](C(C)(C)C)=[N+](C(C)(C)C)[B-]21C(C)(C)C (stereo unspecified)	-1
CCOC(CN(C)C(=S)Nc1cccc2ccccc12)OCC	-1
Cc1ccc(C(=O)N/N=C(\N=N\c2ccc([N+](=O)[O-])cc2)c2ccc(N(CCC#N)CCC#N)cc2C)cc1	-1
O=c1nc2ccc3sc4ccccc4c(=O)c3n2c(=O)[nH]1	-1
C/C(=N\Nc1nc2cc(F)ccc2s1)c1ccccn1	1
C/C(=C\C(=O)Nc1ccc2[nH]nnc2c1)Nc1ccc2[nH]nnc2c1	-1
CCCCCCOc1ccc(C(=O)NOC)cc1	-1
COc1ccc(-n2c(=O)[nH]n(C(C)=O)c2=O)cc1	-1
CC1(C)C2CCC1(C)C(NC(=O)COCCOCC(N)=O)C2 (stereo unspecified)	-1
Cc1ccc(S(=O)(=O)N(CC(O)COc2ccccc2)c2c(F)c(F)cc(F)c2F)cc1 (stereo unspecified)	-1
COc1ccc(C(NCCNC(c2ccc(OC)c(OC)c2)c2cc3c(cc2O)OCO3)c2cc3c(cc2O)OCO3)cc1OC (stereo unspecified)	-1
Cn1c(=O)c(C(=O)NC(=O)NCCCCCOC(=O)CCCCCCCCCCC(=O)OCCCCCNC(=O)NC(=O)c2cn(Cc3ccccc3)c(=O)n(C)c2=O)cn(Cc2ccccc2)c1=O	-1
O=S(=O)(O)c1ccc(/N=N\c2c(O)ccc3cc(Br)ccc23)cc1	-1
c1ccc([I+]c2ccccc2)cc1	-1
CS(=N)(=O)CCC(N)P(=O)(O)O (stereo unspecified)	-1
O=C(Nc1cnc(O)nc1O)C(Cl)Cl	-1
N#C/C(=C/c1cccc2ccccc12)C(=O)c1ccccc1	-1

* * *

- System: U-251
- Protocol Details: NCI tumour cell line growth inhibition, 48 h
Active and inactive are the calls of the source. Cut-off read from the data, not from the text of the source: active = GI50 up to about 1.1 µM and inactive = higher.
Labels: label 1 = active, label 0 = inactive

                                   compound  discrete_label
0  COC(=O)C(NC(=O)c1ccccc1)c1ccco1 (stereo not given)         label 0
1  N#Cc1cc2c(n(C3OC(CO)C(O)C(O)C3O)c1=S)CCCCC2 (stereo not given)         label 0
2             CN(C)C(=S)Nc1nnc(Nc2ccccc2)s1         label 0
3              COc1ccc2c(c1)C(=O)c1ccccc1C2         label 0
4    COC(=O)/C=C1/OC(c2ccc(C)cc2)=C(Cl)C1=O         label 0
5  CC(C)(C)OC(=O)CCC1NC(=O)[C@@H]2Cc3c([nH]c4ccccc34)C(C3CCCCC3)N2C1=O (stereo not given in full)         label 0
6      CN(C)c1ccc2nc3c(ccc4ccccc43)[o+]c2c1         label 0
7     CC(C)(S)C(N)C(=O)O (stereo not given)         label 0
8  COC1/C=C/C=C(/C)Cc2cc(O)c(Cl)c(c2)N(C)C(=O)CC(OC(=O)C(C)C)C2(C)OC2C(C)C2CC1(O)NC(=O)O2 (stereo not given)         label 1
9  N#Cc1ccc(/C=[N+](/C=c2ccc(=C=[N-])cc2)N(CCO)C2=NCCN2)cc1         label 0

* * *

- System: SR
- Protocol Details: NCI tumour cell line growth inhibition, 48 h
Calls of active or inactive are those of the source. No stated cut-off is given here; in the data, active = GI50 up to about 1.1 µM and inactive = higher.
Labels: YES = active, NO = inactive

Molecule	Discrete Label
C/C(=N\Nc1nc2cc(F)ccc2s1)c1ccccn1	YES
C=CC(=C)CCC(Br)C(C)(C)Br (stereo not given)	NO
CC(=O)O[C@H]1C(=O)[C@@]2(C)C(C(OC(=O)c3ccccc3)[C@]3(O)CC(OC(=O)[C@H](OC(=O)CCC(=O)O)C(NC(=O)c4ccccc4)c4ccccc4)C(C)=C1C3(C)C)C1(OC(C)=O)COC1C[C@@H]2O (stereo not given in full)	YES
[N-]=[N+]=C1C(=O)c2ccccc2-c2ccccc21	NO
CSc1ccc(/C=C2\N=C(c3ccccc3)N(c3nc4cc(C)c(C)cc4s3)C2=O)cc1	NO

* * *

- System: M14
- Protocol Details: NCI tumour cell line growth inhibition, 48 h
Active and inactive are the calls of the source. Cut-off read from the data, not from the text of the source: active = GI50 up to about 1.1 µM and inactive = higher.
List of GI50 values.
Readout Label: GI50

In [3]: df
Out[3]:
                                   compound  study_system              reading
0  CN1CCc2cc(N)cc3c2C1Cc1ccc(O)c(O)c1-3 (centres undefined)           M14     34 µM (inactive)
1  N[C@H]1CCC[C@@H](O)C1O (some centres undefined)           M14  > 100 µM (inactive)
2  NC(=O)N1N=C2c3ccccc3OC[C@H]2[C@@H]1c1ccccc1           M14   2.07 µM (inactive)
3              CNc1nc(OC)c2c(n1)n(C)c[n+]2C           M14  > 100 µM (inactive)
4        CCOC(CN(C)C(=S)Nc1cccc2ccccc12)OCC           M14   > 10 µM (inactive)
5  C[N+](C)([O-])CCCNc1c2ccccc2nc2cccc([N+](=O)[O-])c12           M14    0.258 µM (active)
6  C=C1C[C@]23CC[C@@H]4C(CO)(CO)CC(=O)C[C@]4(C)[C@@H]2C(O)C[C@H]1C3 (some centres undefined)           M14  > 100 µM (inactive)
7         CC1(C)C(C#N)=[N+]([O-])C(C)(C)N1O           M14  > 100 µM (inactive)
8  O=C1OCC(CN2CCC(n3c(=O)[nH]c4ccccc43)CC2)=C1c1ccccc1           M14   18.3 µM (inactive)

* * *

- Tested on: NCI-H460
- Protocol Details: NCI tumour cell line growth inhibition, 48 h
Active and inactive are the calls of the source. Cut-off read from the data, not from the text of the source: active = GI50 up to about 1.1 µM and inactive = higher.
List of GI50 values.
Readout Label: GI50

In [3]: df
Out[3]:
                                   molecule  readout_label              reading
0  CC(=O)OC1CCC2(C)C(=CCC3C2CCC2(C)C3CC3OC4(CCC(C)CN4)C(C)C32)C1 (stereo unspecified)           GI50  > 100 µM (inactive)
1    O=C(/C=C/c1cc(Cl)cc(Cl)c1O)c1cccc(O)c1           GI50  > 100 µM (inactive)
2       ClCCN1CCC2(CC1)SSC1(CCN(CCCl)CC1)S2           GI50   29.3 µM (inactive)
3  Cc1ccc(OC2CC(n3cnc4c(=O)[nH]c(Br)nc43)OC2Oc2ccc(C)cc2)cc1 (stereo unspecified)           GI50   20.6 µM (inactive)
4  COc1ccc(C2S/C(=C\c3ccc([N+](=O)[O-])cc3)C(=O)N2NC(=O)Cc2ccccc2)cc1 (stereo unspecified)           GI50  > 100 µM (inactive)
5  COc1ccc2c(c1)CCc1c(-c3n[nH]c4c3CCc3cc(OC)ccc3-4)n[nH]c1-2           GI50     39 µM (inactive)

* * *

List of GI50 values.
- Test system: HT-29
- Protocol Details: NCI tumour cell line growth inhibition, 48 h
Calls of active or inactive are those of the source. Cut-off read from the data, not from the text of the source: active = GI50 up to about 1.1 µM and inactive = higher.
Readout Label: GI50

                                    molecule  study_system              reading
 0  COc1ccc(C(=O)N(C(=O)N2CCN(c3ccccc3)CC2)S(=O)(=O)c2ccccc2)cc1         HT-29   28.1 µM (inactive)
 1  O=C1N[C@@H](O)[C@@H]2ON=C(c3ccccc3)[C@H]12         HT-29  > 100 µM (inactive)
 2  COc1ccc(N[C@H](C[S+]([O-])c2ccc(C)cc2)C(F)(F)F)cc1 (stereo partly specified)         HT-29  > 100 µM (inactive)
 3      BrCC[P+](c1ccccc1)(c1ccccc1)c1ccccc1         HT-29   13.3 µM (inactive)
 4         CC1(C)C(C#N)=[N+]([O-])C(C)(C)N1O         HT-29  > 100 µM (inactive)
 5  Clc1cccc(-c2nnc(-c3nn(-c4ccccc4)c4nc5ccccc5nc34)o2)c1         HT-29  > 100 µM (inactive)
 6  CC1=CC(O)(c2ccc(-c3ccccc3Cl)cc2)OC1=O (stereo unspecified)         HT-29  > 100 µM (inactive)
 7  O=C(CC(=O)c1cccc2ccccc12)C(=O)NC1C2CC3CC(C2)CC1C3 (stereo unspecified)         HT-29  > 100 µM (inactive)
 8  O=C(/C=C1/Nc2ccc([N+](=O)[O-])cc2NC1O)c1cccc([N+](=O)[O-])c1 (stereo unspecified)         HT-29   56.2 µM (inactive)
 9  CC(C)(C)OC(=O)CCC1NC(=O)[C@@H]2Cc3c([nH]c4ccccc34)C(C3CCCCC3)N2C1=O (stereo partly specified)         HT-29   18.6 µM (inactive)
10  Nc1ncnc2c1ncn2C1OC(CSCc2ccc(Cl)cc2)C(O)C1O (stereo unspecified)         HT-29   22.1 µM (inactive)
11                   C=CCOC(OCC=C)/C(Br)=C/C         HT-29   20.2 µM (inactive)
12  Clc1ccc(Cl)c(/N=N/c2cc3c4c(c2)CCCN4CCC3)c1         HT-29   > 10 µM (inactive)
13  O=C1c2ccccc2C(=O)c2nc(-c3ccccc3)c(-c3ccccc3)nc21         HT-29   21.7 µM (inactive)
14   O=c1nc2ccc3sc4ccccc4c(=O)c3n2c(=O)[nH]1         HT-29  > 100 µM (inactive)
15  CC(/C=C/C(O)=C1/C(=O)CNC1=O)=C\[C@@H](C)[C@H]1O[C@@]2(C)O[C@H](C(=O)[C@@H]3O[C@@]32C)[C@@H]1C         HT-29   21.9 µM (inactive)
16  Nc1ncnc2c1ncn2C1CCC(COS(N)(=O)=O)C1 (stereo unspecified)         HT-29  > 100 µM (inactive)
17  C=C1c2nc3ccccc3n2C=C(c2ccc(C)cc2)N1c1ccc(OC)cc1         HT-29   8.89 µM (inactive)
18  COc1cc(/C=C/C(=O)OC2C(O)C3CC(OC(=O)c4cc(OC)c(OC)c(OC)c4)CC2N3C)cc(OC)c1OC (stereo unspecified)         HT-29   14.2 µM (inactive)
19  COc1cc(/C=c2/c3ccccc3n3c2cc(-c2ccccc2)[n+]3C)cc(OC)c1OC         HT-29   3.07 µM (inactive)
20        COc1ccccc1-c1cc(=O)c2ccccc2n1C1CC1         HT-29   0.0782 µM (active)
